# shrunken log2 fold change annotations
- Test system: Escherichia coli TOP10;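 further: peptides expressed intracellularly from a pBAD plasmid library in pooled LB shake-flask culture, induced with 0.3% L-arabinose, DNA abundance read by NGS, three biological replicates, DESeq2 with apeglm shrinkage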
- EXPERIMENT_NOTES: shrunken log2 fold change of peptide-encoding DNA abundance (4.5 h post-induction vs induction); higher = less antimicrobial activity (less host growth inhibition)
- PARTICULARS: time post-induction: 4.5 h; library: site-saturation at positions 5, 18, 19, 20
# print the numeric value only

Inquiry: Report shrunken log2 fold change for `RRIRQRPPRLPRPRPRPDQVPRP` please.
Reply text: -0.00133

Inquiry: Do the same for `RRIRCRPPRLPRPRPRPFQHPRP` please
Reply text: -0.221

Inquiry: Do the same for `RRIRMRPPRLPRPRPRPDVLPRP` please
Reply text: -0.123

Inquiry: Do the same for `RRIRIRPPRLPRPRPRPLLGPRP` please
Reply text: -0.175

Inquiry: Do the same for `RRIRMRPPRLPRPRPRPRQMPRP` please
Reply text: 0.862

Further cases:
Inquiry: Report shrunken log2 fold change for `RRIRARPPRLPRPRPRPYKEPRP` please.
Reply text: -0.423

Inquiry: Do the same for `RRIRHRPPRLPRPRPRPKKDPRP` please
Reply text: -0.494

src = the supplement of paper PMC9112550
